The measured values listed here are drawn from PubChem BioAssay.

- assay_system: Dihydroorotate dehydrogenase (quinone), mitochondrial (Plasmodium falciparum (isolate 3D7)) (UniProt Q08210)
- Sequence (Q08210 whole entry, looked up): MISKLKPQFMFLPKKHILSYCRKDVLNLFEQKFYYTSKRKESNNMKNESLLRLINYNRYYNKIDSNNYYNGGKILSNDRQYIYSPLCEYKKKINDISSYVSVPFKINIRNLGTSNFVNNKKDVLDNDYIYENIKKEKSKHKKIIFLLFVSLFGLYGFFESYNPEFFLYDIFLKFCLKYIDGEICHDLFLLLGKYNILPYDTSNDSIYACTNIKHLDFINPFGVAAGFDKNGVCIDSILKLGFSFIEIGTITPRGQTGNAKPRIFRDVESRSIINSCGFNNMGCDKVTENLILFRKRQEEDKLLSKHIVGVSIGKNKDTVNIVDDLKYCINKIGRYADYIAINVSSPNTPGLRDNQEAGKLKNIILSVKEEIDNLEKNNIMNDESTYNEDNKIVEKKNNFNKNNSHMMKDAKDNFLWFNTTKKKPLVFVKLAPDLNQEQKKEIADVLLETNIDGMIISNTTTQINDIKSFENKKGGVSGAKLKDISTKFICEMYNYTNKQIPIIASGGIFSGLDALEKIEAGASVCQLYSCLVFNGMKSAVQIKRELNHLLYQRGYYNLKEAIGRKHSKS
- test_protocol: inhibition of P. falciparum DHODH – biochemical, C-terminal His tag, absorbance 600 nm, primary screen (AID 1175);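 also: recombinant parasite enzyme with a five histidine tag at its C terminus; test concentration not given here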
- measurement_parameters: PfDHODH enzyme, DCIP absorbance 600 nm; higher = more signal, called active from +8 up or from −8 down
Binary classification by composite z-score, with -0.4 as an inclusive lower bound for TRUE; all other cases are FALSE.

1) [N-]=[N+]=Nc1ccccc1C[C@@]1(C(=O)N2CCCCC2)N=C(c2ccc(OCCCO)cc2)O[C@@H]1c1ccccc1 :: TRUE

Challenge: State whether the measured composite z-score reaches -0.4, counting equality as reaching it, for C[N+](C)(C)CCCC[C@@H]1NC(=O)[C@@H]2C[C@H](C(=O)NCCCCCCNC(=O)CS)[C@H](c3ccc(O)cc3)N2C1=O
Response given: TRUE

Challenge: State whether the measured composite z-score reaches -0.4, counting equality as reaching it, for C=C(CCCC)/C(=C/C[C@H](OC(C)=O)c1ccc(OCCO)cc1)c1cnc2ccccc2c1
Response given: FALSE

Challenge: State whether the measured composite z-score reaches -0.4, counting equality as reaching it, for COCCOC(=O)N1C(=O)[C@@]2(c3cc(C#Cc4ccc(OC)cc4)ccc31)[C@H](c1ccc(O)cc1)N1[C@H](c3ccccc3)[C@H](c3ccccc3)OC(=O)[C@H]1[C@@H]2C(=O)Nc1nc2ccccc2s1
Response given: FALSE

Challenge: State whether the measured composite z-score reaches -0.4, counting equality as reaching it, for O=C1OCC=C[C@H]2OC34C=CCN(CCN5CCOCC5)C(=O)[C@H]3N(CCO)C(=O)[C@@H]4[C@@H]12 (some centres not stated)
Response given: FALSE

Challenge: State whether the measured composite z-score reaches -0.4, counting equality as reaching it, for O=C(NCc1ccccc1)[C@@H]1c2ccccc2C(=O)N(C2Cc3ccccc3C2)[C@H]1c1ccc(CO)cc1
Response given: TRUE

Challenge: State whether the measured composite z-score reaches -0.4, counting equality as reaching it, for O=C(O)C1N=C(c2ccc(OCCCO)cc2)N(c2ccccc2)O1 (configuration not stated)
Response given: FALSE
